target: Human SARS-CoV-2_Wuhan S (SmT1) (SARS-CoV-2 (Wuhan), UniProt P0DTC2 14-1208); test: SPR, VHH over immobilised S
quantity measured: koff (s⁻¹)
Your answer is read as s⁻¹, so omit the unit and give the number.

# count of solved cases: 5
binder	unit	koff
NRCoV2-MRed07 VHH (VHH) VHH: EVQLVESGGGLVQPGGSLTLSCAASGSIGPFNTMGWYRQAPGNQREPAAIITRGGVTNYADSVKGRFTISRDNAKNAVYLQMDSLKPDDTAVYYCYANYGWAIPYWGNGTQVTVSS	s⁻¹	0.000481
NRCoV2-14 VHH (VHH) VHH: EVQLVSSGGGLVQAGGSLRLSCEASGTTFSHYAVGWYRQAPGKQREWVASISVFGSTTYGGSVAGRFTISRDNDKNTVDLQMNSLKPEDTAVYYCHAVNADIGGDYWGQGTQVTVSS	s⁻¹	0.00101
NRCoV2-SR04 VHH (VHH) VHH: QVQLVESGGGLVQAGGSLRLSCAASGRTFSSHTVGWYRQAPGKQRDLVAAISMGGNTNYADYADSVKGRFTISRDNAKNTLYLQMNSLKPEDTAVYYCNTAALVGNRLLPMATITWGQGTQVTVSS	s⁻¹	0.000515
NRCoV2-S2A4 VHH (VHH) VHH: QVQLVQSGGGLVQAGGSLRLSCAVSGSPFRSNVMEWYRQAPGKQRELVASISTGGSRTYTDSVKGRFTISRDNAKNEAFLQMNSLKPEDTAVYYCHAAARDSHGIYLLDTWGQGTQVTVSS	s⁻¹	0.000446
NRCoV2-SR13 VHH (VHH) VHH: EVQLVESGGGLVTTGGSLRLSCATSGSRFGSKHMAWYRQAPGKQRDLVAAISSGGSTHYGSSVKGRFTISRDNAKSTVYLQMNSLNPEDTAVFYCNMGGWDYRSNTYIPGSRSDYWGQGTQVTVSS	s⁻¹	0.00376

Lookup: Please look up its koff: NRCoV2-MRed06 VHH (VHH) VHH: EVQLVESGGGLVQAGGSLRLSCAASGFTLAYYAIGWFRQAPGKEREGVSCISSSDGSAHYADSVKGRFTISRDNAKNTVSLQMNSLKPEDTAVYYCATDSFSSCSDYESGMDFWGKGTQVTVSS
Found: 0.000996

Lookup: Please look up its koff: NRCoV2-18 VHH (VHH) VHH: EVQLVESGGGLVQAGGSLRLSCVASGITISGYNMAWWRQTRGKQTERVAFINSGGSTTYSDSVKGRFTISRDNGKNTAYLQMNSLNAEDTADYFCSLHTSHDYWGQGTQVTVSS
Found: 9.39e-05

Source of measurements: patent US20240270826A1
